Please respond with reported z-score for every item in the list.
molecular target: NADPH oxidase 4 (Homo sapiens); test: NOX4-dependent H2O2 signal modulators, primary screen, NOX inhibitor project, cell-based, HEK293-NOX4, tetracycline-induced, Amplex Red fluorescence (AID 1160); conditions: 45 min, higher = more signal, called active from +8 up or from −8 down
One number for each entry.

CCOC(=O)C[C@H]1[C@H](OC(=O)c2ccc(-c3ccccc3)cc2)[C@@H](NC(=O)c2ccc3ccccc3c2)c2cc(OCCCO)ccc2N1C(=O)Cc1ccc(OC)cc1; -0.0144
[N-]=[N+]=NCc1ccccc1C[C@]1(C(=O)O)N=C(c2ccc(OCCCO)cc2)O[C@H]1c1ccccc1CN=[N+]=[N-]; 1.11

// each compound listed below needs its z-score
1. CCCNC(=O)[C@@]1(c2ccc([N+](=O)[O-])cc2)CC(=O)N(CC23CC4CC(CC(C4)C2)C3)[C@@H]1c1ccc(CO)cc1
2. O=C1[C@]2(CO)C=C(Br)[C@@H](C[C@@H]2c2ccccc2)[C@@]12CO2
3. O=C1O[C@@H](c2ccccc2)[C@@H](c2ccccc2)N2[C@@H](c3ccc(O)cc3)[C@]3(C(=O)Nc4ccc(C#CC5=CCCCC5)cc43)[C@@H](C(=O)O)[C@H]12
4. COc1ccc(C(=O)Nc2cccc(CN3C(=O)[C@]4(O[C@H](CC(=O)N5CCC[C@H]5CO)[C@@H]([Si](C)(C)c5ccc(OC)cc5)[C@@H]4C)c4ccccc43)c2)cc1

[reply]
-1.85
0.662
-2.76
1.65

* * *

test: basal MM1S mitochondrial membrane potential changes, profiling panel, cell-based, JC-1 fluorescence, 24 h, 100 nL compound (AID 1170); conditions: higher = more signal; further: test concentration not given here
Could you please report measured z-score for the items listed next?

Provide each entry's z-score from the list below.
1. COCCOC(=O)N1C(=O)[C@@]2(c3cc(C#CCC(C(=O)OC)C(=O)OC)ccc31)[C@H](c1ccccc1OCCO)N1[C@H](c3ccccc3)[C@H](c3ccccc3)OC(=O)[C@H]1[C@@H]2C(=O)N1CCc2cc(OC)c(OC)cc2C1
2. CC(=O)NCCCC[C@@H]1NC(=O)[C@H]2C[C@@H](C(=O)NCCCCCC[N+](C)(C)C)[C@@H](c3cccc(OCCO)c3)N2C1=O
3. COCCCNC(=O)[C@@]1(C)c2ccccc2C(=O)N(Cc2cc(C(F)(F)F)cc(C(F)(F)F)c2)[C@H]1c1ccc(CO)cc1

[reply]
-0.702
-0.872
-0.668

* * *

target: NADPH oxidase 4 (Homo sapiens); experiment: NOX4-dependent H2O2 signal modulators, primary screen, NOX inhibitor project, cell-based, HEK293-NOX4, tetracycline-induced, Amplex Red fluorescence (AID 1160); details: 45 min, higher = more signal, called active from +8 up or from −8 down
Threshold check on z-score: at or above -0.1 gives TRUE, strictly below gives FALSE.

// below: answered compounds
CCOC(=O)C[C@H]1[C@H](OC(=O)c2ccc(-c3ccccc3)cc2)[C@@H](NC(=O)Cc2ccc(OC)cc2)c2cc(OCCCO)ccc2N1C(=O)c1ccc2ccccc2n1; TRUE
COCCOC(=O)N1C(=O)[C@@]2(c3cc(C#CC4=CCCCC4)ccc31)[C@H](C(=O)N1CCc3cc(OC)c(OC)cc3C1)[C@H]1C(=O)O[C@H](c3ccccc3)[C@H](c3ccccc3)N1[C@@H]2c1ccccc1OCCO; TRUE
CCN(CC)c1ccc(N2CC=CC34O[C@@H]5/C=C\CCCOC(=O)C5[C@H]3C(=O)N(C(CO)C(C)C)[C@@H]4C2=O)cc1 (some centres undefined); TRUE
COc1ccc(CCN2C(=O)[C@@]3(Cc4ccccc42)c2ccccc2C(=O)N(Cc2ccccc2Cl)[C@H]3c2ccc(CO)cc2)cc1; FALSE
[N-]=[N+]=Nc1ccccc1C[C@]1(C(=O)NCCN2CCOCC2)N=C(c2ccc(OCCCO)cc2)O[C@H]1c1ccccc1; TRUE

[ask] Tell me whether z-score is at least -0.1 here: NC(=O)NCC#Cc1ccc2c(c1)[C@]1(C(=O)N2)[C@H](C(=O)NC[C@H](O)c2ccccc2)[C@H]2C(=O)O[C@H](c3ccccc3)[C@H](c3ccccc3)N2[C@@H]1c1ccc(O)cc1
[reply] TRUE

[ask] Record CCCCC(CC)C(O)C1C=CC2C(=O)N(c3ccccc3)C(=O)C2N1Nc1ccccc1 (centres undefined) ; criterion: z-score no lower than -0.1. Met?
[reply] FALSE

[ask] Threshold query (z-score >= -0.1) on O=C1OCCC=C[C@H]2OC34C=CCN(Cc5ccccc5)C(=O)[C@H]3N(CCCCCCO)C(=O)[C@@H]4C12 (some centres undefined)
[reply] TRUE

[ask] Does z-score meet or surpass -0.1 for C=CCC(OC(C)=O)[C@@H]1[C@@H](N(Cc2ccc(-c3ccccc3)cc2)C(=O)Cc2ccc(OC)cc2)c2cc(OCCCO)ccc2N1C(=O)c1ccc2ccccc2n1 (some centres undefined) ?
[reply] TRUE

* * *

assay: small-molecule microarray binders of probe aLefty2, primary screen, biochemical, biotinylated probe, 635/667 nm fluorescence (AID 1094); conditions: higher = more signal;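 further: score merges spot fluorescence near 667 nm with spot signal-to-noise ratio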
# binarize composite z-score: threshold 0.09 inclusive, high side label 1, low side label 0

Solved entries:
COc1cc2c(cc1OC)CN(C(=O)[C@@H]1[C@H]3C(=O)O[C@H](c4ccccc4)[C@H](c4ccccc4)N3[C@H](c3ccccc3OCCO)[C@@]13C(=O)Nc1ccc(C#CCNC(N)=O)cc13)CC2; label 1
COc1ccc(NN2C(C(O)c3ccc(OC)c(OCc4ccccc4)c3)C=CC3C(=O)N(C4CCCCC4)C(=O)C32)cc1 (stereo not drawn); label 0
N#Cc1ccc(NN2C(C(O)C3CCCCC3)C=CC3C(=O)N(c4ccccc4)C(=O)C32)cc1 (stereo not drawn); label 1
CC(C)c1ccc(NN2C(C(O)c3ccc(N(C)C)cc3)C=CC3C(=O)N(c4ccccc4)C(=O)C32)cc1 (stereo not drawn); label 1
CCOC(=O)C[C@H]1[C@H](OC(=O)c2ccccc2-c2ccccc2)[C@@H](NC(=O)c2ccc3ccccc3c2)c2cc(OCCCO)ccc2N1C(=O)c1ccc2ccccc2n1; label 0
COCCOC(=O)N1C(=O)[C@@]2(c3cc(C#CCNC(N)=O)ccc31)[C@H](c1ccccc1OCCO)N1[C@H](c3ccccc3)[C@H](c3ccccc3)OC(=O)[C@H]1[C@@H]2C(N)=O; label 0
CC(C)NC(=O)[C@@]1(Cc2ccccc2I)c2ccccc2C(=O)N(Cc2ccccc2)[C@H]1c1ccc(CO)cc1; label 0
COCC(=C=CC[C@H](O)c1ccc(OCCO)cc1)C[C@H](O)c1cc(Cl)cc(Cl)c1O; label 0

[ask] Form field: composite z-score at least 0.09? Entry: Cc1ccc(S[C@]2(C(=O)NCCN3CCOCC3)CC(=O)N(Cc3cc(C(F)(F)F)cc(C(F)(F)F)c3)[C@@H]2c2ccc(CO)cc2I)cc1
[reply] label 0

[ask] Given the entry CC(C)C(=C=CC[C@H](O)c1cccc(OCCO)c1)C[C@H](O)COCc1ccccc1 , answer whether its composite z-score meets or surpasses 0.09.
[reply] label 0

[ask] Hello, I need to know if C=C(CCCC)C(=O)CC[C@H](OC(=O)c1cccnc1)c1cccc(OCCO)c1 has measured composite z-score not below 0.09. Thanks!
[reply] label 0

[ask] Decide: is the reported value of composite z-score for CCCCCCc1nc(CCCc2cc3c(c(CCCCCC)n2)[Si](C(C)C)(C(C)C)OC3)cc2c1[Si](C(C)C)(C(C)C)OC2 equal to or greater than 0.09?
[reply] label 0

[ask] State whether the measured composite z-score reaches 0.09, counting equality as reaching it, for COC(=O)[C@@]1(Cc2ccc(OC)cc2)[C@H]2c3cc(C(=O)N4CCCC4)n(Cc4ccccn4)c3C[C@H]2CN1C(=O)c1ccccc1
[reply] label 1

[ask] Could you verify whether the entry CC(=O)NCCCC[C@@H]1NC(=O)[C@@H]2C[C@H](C(=O)NCCCCN(C)C)[C@H](c3ccc(O)cc3)N2C1=O shows composite z-score of no less than 0.09?
[reply] label 0

[ask] Confirm if composite z-score reported for the molecule CC(C)CNC(=O)[C@@]1(c2ccc([N+](=O)[O-])cc2)CC(=O)N(CC23CC4CC(CC(C4)C2)C3)[C@@H]1c1ccc(CO)cc1I is 0.09 or above.
[reply] label 0

[ask] Is composite z-score at least 0.09? Consider COCCCNC(=O)[C@@]1(C)c2ccccc2C(=O)N(Cc2cc(C(F)(F)F)cc(C(F)(F)F)c2)[C@H]1c1ccc(CO)cc1
[reply] label 0

[ask] Determine whether measured composite z-score meets or exceeds 0.09 for N#Cc1ccc(NN2C(C(O)c3ccc([N+](=O)[O-])cc3)C=CC3C(=O)N(c4ccccc4)C(=O)C32)cc1 (stereo not drawn)
[reply] label 0

[ask] Reported composite z-score at or above 0.09? O=C(CS)NCCCCCCNC(=O)[C@H]1C[C@H]2C(=O)N3CCC[C@H]3C(=O)N2[C@H]1c1cccc(OCCO)c1
[reply] label 1

[ask] Identify whether the reported composite z-score of the following molecule is 0.09 or greater: COc1ccc([Si](C)(C)[C@@H]2[C@@H](CCn3cc([C@H](O)c4ccccc4)nn3)O[C@]3(C(=O)N(Cc4cccc(N5CCOC5=O)c4)c4ccccc43)[C@H]2C)cc1
[reply] label 0

[ask] composite z-score >= 0.09 for COCCOC(=O)N1C(=O)[C@@]2(c3ccccc31)[C@H](C(=O)NC[C@H](O)c1ccccc1)[C@H]1C(=O)O[C@H](c3ccccc3)[C@H](c3ccccc3)N1[C@@H]2c1ccc(OCCO)cc1 ?
[reply] label 0

[ask] Hello, I need to know if C=CC(COC(C)=O)NS(=O)(=O)c1ccc(Br)cc1 (stereo not drawn) has measured composite z-score not below 0.09. Thanks!
[reply] label 0

[ask] Entry NC(=O)NCC#Cc1ccc2c(c1)[C@]1(C(=O)N2)[C@H](C(=O)NC[C@H](O)c2ccccc2)[C@H]2C(=O)O[C@H](c3ccccc3)[C@H](c3ccccc3)N2[C@@H]1c1ccc(O)cc1 : is its composite z-score no less than 0.09?
[reply] label 1

[ask] // inclusive: composite z-score at least 0.09? input: CO[C@H]1O[C@H](CO)[C@@H](OC(=O)Nc2ccc(Oc3ccccc3)cc2)[C@H](OC(=O)Nc2ccccc2)[C@H]1OC(=O)Nc1ccccc1
[reply] label 1
